System: ragweed (common ragweed, Ambrosia elatior)
Assay: Test A greenhouse herbicide test, pre- and postemergence
Assay type: in vivo
Details: Postemergence, 125 g ai/ha; 0 to 100 scale where 0 is no effect and 100 is complete control
Excerpt: […]
hey, just use 1.0 if measured Plant response rating, Ragweed is less than 80, otherwise 0.0

Enquiry: Could you please tell me whether Plant response rating, Ragweed recorded for CC(=O)Oc1c(C)nn(C)c(=O)c1-c1c(C(F)(F)F)ccc2ccccc12 is less than 80?
Return: 0.0

Enquiry: Could you please tell me whether Plant response rating, Ragweed recorded for COc1ccc2ccccc2c1-c1c(O)c(C)nn(C)c1=O is less than 80?
Return: 1.0

Enquiry: Could you please tell me whether Plant response rating, Ragweed recorded for C#Cc1ccc2cccc(-c3c(O)c(C)nn(C)c3=O)c2c1 is less than 80?
Return: 1.0

Enquiry: Could you please tell me whether Plant response rating, Ragweed recorded for Cc1cc(C)c2ccccc2c1-c1c(O)cnn(C)c1=O is less than 80?
Return: 1.0

Enquiry: Could you please tell me whether Plant response rating, Ragweed recorded for CC(=O)Oc1c(C#N)nn(C)c(=O)c1-c1c(C)ccc2ccccc12 is less than 80?
Return: 0.0

* * *

Reported Plant response rating, Pigweed values for a set of compounds
Tested on: pigweed (Amaranthus retroflexus)
Assay: Test A greenhouse herbicide test, pre- and postemergence
Format: in vivo
Settings: Preemergence, 500 g ai/ha; 0 to 100 scale, 0 no effect, 100 complete control

Enquiry: API: value(readout=Plant response rating, Pigweed, system=pigweed (Amaranthus retroflexus)) for record CC(=O)Oc1c(C)nn(C)c(=O)c1-c1c(C)sc2ccc(C)cc12
Return: 100

* * *

System: momingglory (Ipomoea coccinea)
Test: Test E greenhouse herbicide test, pre- and postemergence
Format: in vivo
Settings: 62 g ai/ha, Preemergence; scale 0 to 100 (0 no effect, 100 complete control)
measured_endpoint: Plant response rating, Morningglory
Enter a number only.

Example entries and their recorded answers appear below.
>>> numeric_readout("Cc1ccc2sc(C)c(-c3c(O)c(C)nn(C)c3=O)c2c1")
98
>>> numeric_readout("Cc1cc(C)c2sc(C)c(-c3c(OC(=O)OCCCl)c(C)nn(C)c3=O)c2c1")
30
>>> numeric_readout("CCOC(=O)Oc1c(C)nn(C)c(=O)c1-c1c(CC)ccc2ccccc12")
40

Continue with the molecule presented below.
Enquiry: Entry C#CCOC(=O)Oc1c(C)nn(C)c(=O)c1-c1c(C)sc2ccc(C)cc12 : reported Plant response rating, Morningglory = ?
Return: 35

* * *

Test system: pigweed (Amaranthus retroflexus)
Assay: Test D controlled growth environment herbicide test, pre- and postemergence
Type: in vivo
Settings: Postemergence, 125 g ai/ha; visual rating on scale 0 (no effect) to 100 (complete control), 14 to 21 d
Reported Plant response rating, Pigweed values for a set of compounds
Enter a number only.

Example entries and their recorded answers appear below.
>>> numeric_readout("CCOC(=O)Oc1c(C)nn(C)c(=O)c1-c1c(C)sc2c(C)cc(C)cc12 [Compound 83]")
100
>>> numeric_readout("CC(=O)Oc1c(C)nn(C)c(=O)c1-c1ccc(F)c2ccccc12 [Compound 90]")
95
>>> numeric_readout("Cc1ccc2ccc(C)c(-c3c(O)c(C)nn(C)c3=O)c2c1 [Compound 60]")
100

Enquiry: Entry CCOC(=O)Oc1c(C)nn(C)c(=O)c1-c1c(C)sc2ccc(C)cc12 [Compound 82] : reported Plant response rating, Pigweed = ?
Return: 100

* * *

Reported Plant response rating, Galium values for a set of compounds
System: galium (catchweed bedstraw, Galium aparine)
Assay: Test C greenhouse herbicide test, pre- and postemergence
Type: in vivo
Conditions: Postemergence, 250 g ai/ha; scale 0 to 100, 0 no effect, 100 complete control; 13 to 15 d
Enter a number only.

>>> numeric_readout("CC(=O)Oc1c(C)nn(C)c(=O)c1-c1c(C)sc2c(C)cc(C)cc12")
100
>>> numeric_readout("CC(=O)Oc1c(Br)nn(C)c(=O)c1-c1c(C)ccc2ccccc12")
100
>>> numeric_readout("CCC(=O)Oc1c(Cl)nn(C)c(=O)c1-c1c(C)sc2ccc(Cl)cc12")
95

Enquiry: API: value(readout=Plant response rating, Galium, system=galium (catchweed bedstraw, Galium aparine)) for record COc1nn(C)c(=O)c(-c2c(C)sc3ccccc23)c1O
Return: 95

Enquiry: API: value(readout=Plant response rating, Galium, system=galium (catchweed bedstraw, Galium aparine)) for record CC(=O)Oc1c(C)nn(C)c(=O)c1-c1c(C)oc2ccc(C)cc12
Return: 90

Enquiry: API: value(readout=Plant response rating, Galium, system=galium (catchweed bedstraw, Galium aparine)) for record CCOC(=O)Oc1c(C)nn(C)c(=O)c1-c1c(CC)ccc2ccccc12
Return: 95

Enquiry: API: value(readout=Plant response rating, Galium, system=galium (catchweed bedstraw, Galium aparine)) for record CCCC(=O)Oc1c(C)nn(C)c(=O)c1-c1c(C)sc2c(C)cc(C)cc12
Return: 100

Enquiry: API: value(readout=Plant response rating, Galium, system=galium (catchweed bedstraw, Galium aparine)) for record CC(=O)Oc1c(C)nn(C)c(=O)c1-c1c(C)sc2ccc(C)cc12
Return: 95

Enquiry: API: value(readout=Plant response rating, Galium, system=galium (catchweed bedstraw, Galium aparine)) for record Cc1cc(C)c2sc(C)c(-c3c(OC(=O)OC(C)C)c(C)nn(C)c3=O)c2c1
Return: 90

Enquiry: API: value(readout=Plant response rating, Galium, system=galium (catchweed bedstraw, Galium aparine)) for record CC(=O)Oc1c(C#N)nn(C)c(=O)c1-c1c(C)ccc2ccccc12
Return: 98

Enquiry: API: value(readout=Plant response rating, Galium, system=galium (catchweed bedstraw, Galium aparine)) for record Cc1nn(C)c(=O)c(-c2c(C)sc3ccc(Cl)cc23)c1O
Return: 98

Enquiry: API: value(readout=Plant response rating, Galium, system=galium (catchweed bedstraw, Galium aparine)) for record COc1nn(C)c(=O)c(-c2c(C)ccc3ccccc23)c1O
Return: 98

Enquiry: API: value(readout=Plant response rating, Galium, system=galium (catchweed bedstraw, Galium aparine)) for record COC(=O)Oc1c(Br)nn(C)c(=O)c1-c1c(C)ccc2ccccc12
Return: 95

* * *

Reported Plant response rating, Kochia values for a set of molecules
Tested on: kochia (Kochia scoparia)
Test: Test A greenhouse herbicide test, pre- and postemergence
Format: in vivo
Settings: Preemergence, 500 g ai/ha; 0 to 100 scale where 0 is no effect and 100 is complete control

>>> result("Cc1ccc2ccccc2c1-c1c(O)c([N+](=O)[O-])nn(C)c1=O")
0
>>> result("CCC(=O)Oc1c(C)nn(C)c(=O)c1-c1ccc(Br)c2ccccc12")
100
>>> result("CCC(=O)Oc1c(C)nn(C)c(=O)c1-c1c(C)sc2ccc(Cl)cc12")
100
>>> result("Cc1cc(C)c2sc(C)c(-c3c(OCC#N)c(C)nn(C)c3=O)c2c1")
20
>>> result("CC(=O)Oc1c(C)nn(C)c(=O)c1-c1c(C(F)(F)F)ccc2ccccc12")
90
>>> result("CCc1nn(C)c(=O)c(-c2c(C)oc3ccccc23)c1O")
0
>>> result("CC(=O)Oc1c(Br)nn(C)c(=O)c1-c1c(C)ccc2ccccc12")
90
>>> result("Cc1nn(C)c(=O)c(-c2c(C)sc3ccc(Cl)cc23)c1O")
100

Enquiry: API: value(readout=Plant response rating, Kochia, system=kochia (Kochia scoparia)) for record COc1nn(C)c(=O)c(-c2c(C)sc3ccc(Cl)cc23)c1O
Return: 70

* * *

Tested on: barley, winter (winter barley, Hordeum vulgare)
Assay: Test D controlled growth environment herbicide test, pre- and postemergence
Assay type: in vivo
Conditions: Preemergence, 125 g ai/ha; scale 0 to 100 (0 no effect, 100 complete control)
Source text: […]
measured_endpoint: Plant response rating, Barley, Winter
Enter a number only.

>>> numeric_readout("C#CCOC(=O)Oc1c(C)nn(C)c(=O)c1-c1c(C)sc2ccc(C)cc12")
10
>>> numeric_readout("COc1nn(C)c(=O)c(-c2c(C)ccc3ccccc23)c1OC(=O)OC(C)C")
0
>>> numeric_readout("Cc1ccc(-c2c(O)c(Br)nn(C)c2=O)c2ccccc12")
0
>>> numeric_readout("CCC(=O)Oc1c(C)nn(C)c(=O)c1-c1c(C)sc2c(C)cc(C)cc12")
15
>>> numeric_readout("CC(=O)Oc1c(C)nn(C)c(=O)c1-c1c(C)sc2c(C)cc(C)cc12")
10
>>> numeric_readout("COC(=O)Oc1c(C)nn(C)c(=O)c1-c1c(C)sc2c(C)cc(C)cc12")
45

Continue with the compound presented below.
Enquiry: Entry CCOC(=O)Oc1c(C)nn(C)c(=O)c1-c1c(C)sc2ccc(C)cc12 : reported Plant response rating, Barley, Winter = ?
Return: 5

* * *

Test system: crabgrass, large (large crabgrass, Digitaria sanguinalis)
Experiment: Test C greenhouse herbicide test, pre- and postemergence
Type: in vivo
Settings: Postemergence, 31 g ai/ha; 0 to 100 scale (0 no effect, 100 complete control)
measured_endpoint: Crabgrass, Large plant response rating
Enter a number only.

Example entries and their recorded answers appear below.
>>> numeric_readout("CCOC(=O)Oc1c(C)nn(C)c(=O)c1-c1c(CC)ccc2ccccc12")
10
>>> numeric_readout("CC(=O)Oc1c(C)nn(C)c(=O)c1-c1c(C)oc2ccc(C)cc12")
5
>>> numeric_readout("Cc1cc(C)c2ccccc2c1-c1c(O)cnn(C)c1=O")
0
>>> numeric_readout("COc1nn(C)c(=O)c(-c2c(C)sc3ccccc23)c1O")
10
>>> numeric_readout("CCC(=O)Oc1c(C)nn(C)c(=O)c1-c1c(C)sc2c(C)cc(C)cc12")
25
>>> numeric_readout("COc1nn(C)c(=O)c(-c2c(C)ccc3ccccc23)c1O")
20

Continue with the molecule presented below.
Enquiry: Entry COc1nn(C)c(=O)c(-c2c(C)ccc3ccccc23)c1OC(=O)OC(C)C : reported Crabgrass, Large plant response rating = ?
Return: 25
